# Tested on: NCI-H226
# Assay method text: NCI tumour cell line growth inhibition, 48 h
Calls of active or inactive are those of the source. Rule as the data show it: active = GI50 up to about 1.1 µM and inactive = higher.
Exercise: for every item that follows, state its recorded GI50.

Consider the worked cases shown below.
- CC1CCC2[C@@H](C)COC3O[C@]4(C)CCC1C32OO4 (some centres not stated): > 100 µM (inactive)
- CNCCCn1c2ccccc2c2c3c(c(-c4ccsc4)cc21)C(=O)NC3=O: 2.37 µM (inactive)
- CCC1C2Cc3ccc(O)cc3C1(CC)CCN2C (configuration not stated): > 100 µM (inactive)
- Cc1cc(NC(=O)C(=O)Cc2nc3ccccc3s2)ccc1Cl: > 100 µM (inactive)
- CC1=NC(=Cc2ccccc2O)C(=O)N1n1c(-c2ccccc2)nc2ccccc2c1=O: 51.1 µM (inactive)
- COc1cc(O)c(C(=O)C2Cc3ccccc32)c(OC)c1 (configuration not stated): 22.6 µM (inactive)
- c1cc(C[S+]2CCCC2)ccc1C[S+]1CCCC1: > 100 µM (inactive)
- Cc1cccc2c1C(=O)OC2(c1cccc2ccccc12)c1cccc2ccccc12: > 100 µM (inactive)
- CC12CCC(Br)C(C)(C)C1CC=C1C(=O)OCC1O2 (configuration not stated): 10.1 µM (inactive)
- O=C1NC2c3c(I)sc(I)c3/C(=N\O)C2O1 (configuration not stated): 31 µM (inactive)

Batch: GI50 for all items listed.
1. CC1=C2C(O)C(C(C)CO)C(O)CC2(C)C(O)CC1 (configuration not stated)
2. [N-]=[N+]=Nc1ccc(CNc2cc(=O)[nH]c(=O)[nH]2)cc1

Reply:
1: > 100 µM (inactive); 2: > 100 µM (inactive)

Batch: GI50 for all items listed.
1. Cc1c(C(=O)/C=C/c2ccccc2O)c(=O)n(-c2ccccc2)n1C
2. O=C1/C(=C\c2cccc(Oc3ccccc3)c2)S(=O)(=O)C(c2ccccc2)N1c1ccc(Cl)cc1 (configuration not stated)
3. CC1(C)N=C(/C(Cl)=[N+](/[O-])C(=O)c2ccc(F)cc2)C(C)(C)N1O
4. OC1CCCC1C(O)(C(F)(F)F)C(F)(F)F (configuration not stated)
5. Cc1ccc([N+](=O)[O-])cc1S(=O)(=O)Nc1ccc(C2=NN(C(=O)c3ccccc3)C(c3cccs3)C2)cc1 (configuration not stated)
6. C=CCN1C[C@H](C)N([C@H](c2ccc(C(=O)NC(CC)CC)cc2)c2cccc(OC)c2)C[C@H]1C

Reply:
["33.5 µM (inactive)", "43.1 µM (inactive)", "22.7 µM (inactive)", "> 100 µM (inactive)", "21.5 µM (inactive)", "70.5 µM (inactive)"]

Hi there! I need GI50 for each item below, if you can.
1. COc1ccc(OC)c2c(/C=C/c3ccc(N(C)C)cc3)ccnc12
2. CC(NC(=O)C(C)C(=O)NCc1ccc(C(F)(F)F)cc1)C(N)=O (configuration not stated)
3. Cc1cccc(C)c1NC(=O)CCCC(=O)C(C#N)c1ccccc1 (configuration not stated)

Reply:
1. > 10 µM (inactive)
2. > 100 µM (inactive)
3. > 100 µM (inactive)

Provide GI50 values for the following items, in order.
1. Oc1ccc(/N=C/c2ccc(/C=N/c3ccc(O)cc3)cc2)cc1
2. COc1cc2ccc(/C=C\[N+](=O)[O-])cc2cc1OC
3. O=C1CSSCC(=O)Nc2ccccc2N1
4. O=C(O)CCCCCNC(=O)CCC(CN(CC(=O)OCc1ccccc1)CC(=O)OCc1ccccc1)N(CC(=O)OCc1ccccc1)CC(=O)OCc1ccccc1 (configuration not stated)
5. N=C(N)NC(=N)Nc1ccccc1.Sc1nc2ccccc2s1
6. COC(=O)C1=C(C)N(NC(=O)OC(C)(C)C)C(=O)C1=P(c1ccccc1)(c1ccccc1)c1ccccc1

Reply:
14.6 µM (inactive)
27.7 µM (inactive)
> 100 µM (inactive)
22.9 µM (inactive)
> 100 µM (inactive)
> 100 µM (inactive)
